# Assay protocol: Human HepG2 cell viability assay in 384 well format
# Assay type: toxicity, cell-based
# Design: dose 125 nL, time 70.5 hour; concentration not given beside the values
# Measurement parameters: HepG2 cells, read-out: Inhibition
Reported property: cytotoxicity at 70.5 h (%)

>>> value_reported("Cc1nc(C(C)C)ncc1C(=O)N1CCCC(N2CCCC2)C1 (configuration not stated)")
6.69
>>> value_reported("COCCCNC(=O)CN(C)C(C)c1nc(C)no1 (configuration not stated)")
-3.18
>>> value_reported("CCOc1cccc(CNC(=O)NCC(O)c2cccc(F)c2)c1 (configuration not stated)")
10.6
>>> value_reported("COc1ccc(OC)c(S(=O)(=O)NCC2(OC)CCSC2)c1 (configuration not stated)")
-7.48
>>> value_reported("COc1cc(C(C)=O)ccc1OCC(=O)N(Cc1ccsc1)C1CC1")
-12
>>> value_reported("CNc1ccc(C)cc1C(=O)N1CCCC2(CCNC2)C1 (configuration not stated)")
-8.09
>>> value_reported("Cc1nc(C)n(CC2CCCN(CC(=O)Nc3nncs3)C2)n1 (configuration not stated)")
-6.97
>>> value_reported("COc1ccc(C(O)CN2CC(n3nc(C)cc3C)C2)cc1 (configuration not stated)")
1.87
>>> value_reported("Cc1nc(CC(=O)N2CCC[C@H]2c2nc(C(C)C)no2)cs1")
-1.93
>>> value_reported("O=C(c1ccc2c(c1)OCO2)N1CCCC(n2ccnc2)C1 (configuration not stated)")
10.2
>>> value_reported("O=C(c1cscn1)N1CCC2(CN(Cc3ccncc3)C2)C1")
-9.93
>>> value_reported("c1cnc(NCc2nnn3c2CN(Cc2ccsc2)CCC3)nc1")
-118
>>> value_reported("COc1ccnc(NC(=O)c2cnccn2)c1")
-7.62
>>> value_reported("Cc1cnn(CC2CCCN2C(=O)c2cn(C)c3ccccc23)c1 (configuration not stated)")
-9.04
>>> value_reported("c1cnc(N2CCC3(COCCN(CC4CC4)C3)C2)nc1 (configuration not stated)")
-21.1
>>> value_reported("COCC1CN(CC2CC2)Cc2nccn2C1 (configuration not stated)")
-6.11
>>> value_reported("CC[C@]12CN3C[C@](C)(CN(C1)C3c1[nH]c(=O)[nH]c(=O)c1C)C2=O (some centres not stated)")
-2.75
>>> value_reported("Cn1ncc2c1C(COCC1CC1)CN(S(=O)(=O)C1CC1)C2 (configuration not stated)")
-4.08
>>> value_reported("CCn1ccnc1CN(C)Cc1nc(Cc2ccccc2Cl)no1")
0.631
>>> value_reported("CC(O)c1cn(Cc2ccc(Cl)cc2)nn1 (configuration not stated)")
-6.41
>>> value_reported("CC(Cc1ccco1)NC(=O)CSc1nnc[nH]1 (configuration not stated)")
-9.49
>>> value_reported("O=C(NCc1ccc(Cl)cc1Cl)NCC1(O)CCSC1 (configuration not stated)")
18.5
>>> value_reported("Cn1cccc(NC(=O)NCc2cccc(CO)c2)c1=O")
7.6
>>> value_reported("Cn1cnnc1C1CCCN(C(=O)NCc2cc[nH]n2)C1 (configuration not stated)")
18.7
>>> value_reported("COCC(=O)NCc1cc(=O)n2c(n1)CN(Cc1ccsc1)CCC2")
-12.5
>>> value_reported("Cc1cccc(CN(Cc2ccccn2)S(=O)(=O)N(C)C)c1")
18.6
>>> value_reported("CC(C)NC(=O)N1CCN(C(=O)N(C)C)CC2(CC(=O)N(C)C2)C1 (configuration not stated)")
-6.79
>>> value_reported("C1CCC(CNC2CCCN(Cc3noc(C4CC4)n3)C2)CC1 (configuration not stated)")
-15.3
>>> value_reported("O=C(Cc1csc(-c2ccco2)n1)N1CCCC1Cn1cccn1 (configuration not stated)")
-7.55
>>> value_reported("COc1cc(C)ccc1OCc1nc(C(=O)N2CCCC2)co1")
0.58
>>> value_reported("C/C(=C/c1ccccc1)CNCc1cccc(C(N)=O)c1")
-10.9
>>> value_reported("OCc1n[nH]c(-c2ccc(F)cc2)n1")
-13.2
>>> value_reported("COCc1noc(-c2cc(Cl)c3c(c2)OCCCO3)n1")
-8.58
>>> value_reported("CCCc1nccn1-c1ccc(C(C)O)cc1 (configuration not stated)")
-5.9
>>> value_reported("O=c1n(CCNc2cccc3ccccc23)nc2ccccn12")
4.9
>>> value_reported("C[C@@H]1CN(CCC(=O)N(C)Cc2ccccc2)C[C@@]1(O)C1CCC1")
-7.64
>>> value_reported("Cc1nccc(C2CCCN(C(=O)c3cncnc3)C2)n1 (configuration not stated)")
-5.03
>>> value_reported("COCC(=O)N1CCC(C(=O)c2cc(C)cnc2N)CC1")
-1.24
>>> value_reported("CN1CC=C(CCN(C)C(=O)CCc2ccccc2)CC1")
-6.34
>>> value_reported("CCC1CN(c2cnn(-c3ccccc3)c(=O)c2Cl)CCO1 (configuration not stated)")
-12.4
>>> value_reported("CC(C)OCCCN(CC(=O)N1CCNCC1)C(=O)c1ccc(F)cc1")
19.8
>>> value_reported("COCCO[C@@H]1CCN(C(=O)c2ccc[nH]2)[C@H]1Cc1cnn(C)c1")
-7.64
